System: Abutilon theophrasti (ABUTH)
Assay: C. Herbicidal pre-emergence efficacy, ABUTH
Type: in vivo
Settings: 80 g/ha, scored after about 3 weeks
Description: Seeds of monocotyledonous and dicotyledonous weed plants and crop plants were placed in plastic or organic planting pots and covered with soil. […] After about 3 weeks, the efficacy of the preparations was scored visually in comparison with untreated controls as percentages. […]
METRIC: Pre-emergence efficacy against ABUTH (%)

1) O=S(=O)(CCC(F)(F)F)Oc1c(Cl)cccc1Oc1ncc(Cl)cn1 ... 100
2) CCCCS(=O)(=O)Oc1ccccc1Oc1ncc(Cl)cn1 ... 90
3) O=S(=O)(CCCC(F)(F)F)Oc1c(F)cccc1Oc1ncc(Cl)cn1 ... 100
4) O=S(=O)(CCC(F)(F)F)Oc1c(F)cccc1Oc1ncc(Cl)cn1 ... 100
